Answer each item with its documented protein stability index.
B1: ZBED2 (parent)
chain: RAGHHPNQYATCRLCGRQVSRGPG

variants of: B1; test: protein stability index of a GFP-peptide fusion (GPS, HEK-293T) (PSI 1-6); higher = more stable; details: c terminus: a fixed tail appended;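 further: lentivirally expressed fusions sorted by FACS into six bins by GFP to DsRed ratio, PSI derived from sequencing read proportions per bin multiplied by bin number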
Number only, please.

input: Entry under review: N7R . Reported protein stability index?
output: 1.46

input: L14W ?
output: 2.12

input: // query: Y9N
output: 2.33

input: Now the variant N7S
output: 1.88

input: For H4I then?
output: 3.21

input: What about this variant? Q8P
output: 2.03

input: Param item: G24E
output: 2.35

input: # repeat for Q8G
output: 1.86

input: Next record, please: Q18E
output: 1

input: Entry A2P please
output: 1.73

input: Repeat for the following variant: G24W
output: 1.97

input: Query H5A next
output: 2.48

input: Another variant to look at: R21T
output: 1.78

input: Moving on to Y9A
output: 2.33

input: How about this variant: P23V
output: 1.84

input: Also C12T , if possible.
output: 3.19

input: And for R17Q ?
output: 1.3

input: Moving on to Q8N
output: 1.68

input: Next entry: G24C
output: 1.53

input: Repeat for the following variant: R21H
output: 2.04

input: Input H4N
output: 3.52

input: Cool, now G24T
output: 2.17
